Assay target: T1, human Trop-2 expressed on cell surface (human, UniProt P09758 27-323)
T1 sequence (looked up): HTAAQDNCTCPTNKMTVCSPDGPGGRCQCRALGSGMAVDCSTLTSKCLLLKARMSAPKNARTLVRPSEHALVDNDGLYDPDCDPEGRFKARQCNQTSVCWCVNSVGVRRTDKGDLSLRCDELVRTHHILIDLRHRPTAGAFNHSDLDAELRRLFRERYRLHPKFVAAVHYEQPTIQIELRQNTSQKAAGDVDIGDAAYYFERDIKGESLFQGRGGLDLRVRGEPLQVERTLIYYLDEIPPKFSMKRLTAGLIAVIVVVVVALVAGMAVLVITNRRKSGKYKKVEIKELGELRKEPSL
Assay method text: cell-based or functional assay
In this section, each of the binders is paired with its reported EC50 of ADCC (NFAT-CD16 reporter), MDA-MB-231.
Only the number, expressed in pM, is required.

66A1 (antibody, V domains shown, Rabbit-derived clone; LEM construct: VH + rabbit IgG CH1 + human IgG1 CH2-CH3) VH: QEQLKESGGGLVQPGGSLKLSCKASGFDFNNYGVSWVRQAPGKGLEWIAYIYPAFHNTYYASWVNGRFTISSHNAQNTLYLQLNSLTAADTATYFCARDAGGTDYAYNLWGPGTLVTVSS VL: DVVMTQTPASVEAAVGGTVSINCQASEDIESYLAWYQQKPGQPPKLLIYKASTLASGVSSRFKGSGSGKQFTLTISGVECADAATYYCQQVLTIGNVDNPFGGGSEVVVK: 60
5D4 (antibody, V domains shown, Rabbit-derived clone; LEM construct: VH + rabbit IgG CH1 + human IgG1 CH2-CH3) VH: QQLEESGGGLVKPEGSLTLTCKGSGFDFSGTYWMWWVRQAPGKGLEWIACIYVGSGSSTYYASWAKGRFTISSTSSTAVTLQATSLTAADTATYFCARGATNNVFMNYFNLWGPGTLVTVSS VL: FEMTQTPSSVSEPVGGTVTIKCQASEDISSNLGWYQQKPGQPPKLLIYGASTLASGVPSRFKGSGSGTEFTLTISDLECADAATYYCQTSYYIDDGVNGFGGGTEVVVK: 70

Now, please, on to the next binder.
Form: binder = 74F11/15F5 (antibody, human IgG1, V domains shown, LEM construct: VH + rabbit IgG CH1 + human IgG1 CH2-CH3) VH: QEQLKESGGGLVQPGGSLKLSCKASGFDFNNYGMSWVRQAPGKGLEWIAYIYPAFHNTYYANWVNGRFTISSDNAQNTVDLQLNSLTAADTATYFCARDAGSTDYNFNLWGPGTLVTVSS VL: DVVMTQTPASVEAAVGGTVTIKCQASEDIERYLAWYQQKPGQPPKLLIYEASKLPSGVSSRFSGSGYGTEFTLTISGVECADAATYYCQQALTIGYVDNPFGGGSEVVVK ; EC50 of ADCC (NFAT-CD16 reporter), MDA-MB-231 = 90

Value source: patent US20250206841A1
